assaySystem: ScPex13
protocolDetails: SPOT peptide array binding signal intensity (averaged, normalized) (arbitrary units (background-subtracted, floor 0; scale differs between SH3 domains)); higher = stronger binding of the SH3 domain to the peptide
condition met means recorded SPOT peptide array binding signal intensity is 100 or above; condition not met means it is below 100.

Before answering, review these 6 worked examples.
binder=IKTRSVPKIPSIESV answerlabel="condition met"
binder=AVPPPPPPPPLPESL answerlabel="condition met"
binder=LSKRLPLRFPEHTSS answerlabel="condition not met"
binder=GKKVRPLLVLLLSRA answerlabel="condition not met"
binder=NFKRLLPRDPSEKSS answerlabel="condition not met"
binder=NNNKMRPHLPPLSSG answerlabel="condition met"

Now take the following binder into account.
-- ask Does the binder `RKRRTHLRLPLIRSN` have recorded SPOT peptide array binding signal intensity that is 100 or more?
-- reply condition not met
